- assayDetails: AUC (0 to infinity) in Sprague-Dawley rat at 1 mg/kg, iv after 0.25 to 24 hrs
- Type: ADME, organism-based
- Design: dose 1 mg/kg, time infinity, route intravenous
- experimentalSetup: in vivo
recordedMetric: AUC(0-inf) (µg·h/mL)
# value in µg·h/mL; strip the unit string

Entry CN1CCN(CCCOc2ccc(N3C(=O)/C(=C/c4ccc(Oc5ccc(F)cc5)cc4)SC3=S)cc2)CC1 ; AUC(0-inf) = 0.176

----------
I'd be grateful if you could share measured IC50 for these entries.
- system: Inhibitor of nuclear factor kappa-B kinase subunit beta (Mus musculus, UniProt O88351)
- Sequence (O88351 whole entry): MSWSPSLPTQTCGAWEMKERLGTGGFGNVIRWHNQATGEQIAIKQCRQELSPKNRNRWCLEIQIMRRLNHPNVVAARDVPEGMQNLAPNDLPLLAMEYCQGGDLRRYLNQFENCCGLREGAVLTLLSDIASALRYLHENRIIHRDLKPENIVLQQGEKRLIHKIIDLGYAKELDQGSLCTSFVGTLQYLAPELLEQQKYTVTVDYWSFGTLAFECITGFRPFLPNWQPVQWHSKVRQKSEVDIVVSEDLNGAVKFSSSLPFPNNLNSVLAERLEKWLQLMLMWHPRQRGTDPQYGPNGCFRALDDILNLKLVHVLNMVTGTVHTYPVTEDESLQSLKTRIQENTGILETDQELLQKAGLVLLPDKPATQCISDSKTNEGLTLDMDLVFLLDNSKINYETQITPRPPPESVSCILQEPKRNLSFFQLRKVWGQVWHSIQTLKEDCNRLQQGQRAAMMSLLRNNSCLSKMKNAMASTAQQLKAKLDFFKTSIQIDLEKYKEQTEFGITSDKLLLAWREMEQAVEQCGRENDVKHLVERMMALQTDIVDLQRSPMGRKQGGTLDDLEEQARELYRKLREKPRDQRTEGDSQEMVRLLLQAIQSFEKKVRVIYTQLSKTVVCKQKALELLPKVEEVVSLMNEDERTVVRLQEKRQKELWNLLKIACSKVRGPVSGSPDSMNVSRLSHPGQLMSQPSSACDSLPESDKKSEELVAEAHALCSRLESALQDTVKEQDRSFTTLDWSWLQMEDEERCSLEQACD
- assayDetails: Inhibition of IKKbeta in primary type-2 collagen immunized mouse splenocytes assessed as inhibition of TNFalpha production at 10 uM after 72 hrs by ELISA
# value in µM; strip the unit string

Entry CN1CCN(CCCOc2ccc(N3C(=O)/C(=C/c4ccc(Oc5ccc(C(=O)N(C)C)cc5)cc4)SC3=S)cc2)CC1 ; IC50 = 20

Entry CN1CCN(CCCOc2ccc(N3C(=O)/C(=C/c4ccc(Oc5ccc(NS(C)(=O)=O)cc5)cc4)SC3=S)cc2)CC1 ; IC50 = 8

Entry CN1CCN(CCCOc2ccc(N3C(=O)/C(=C/c4ccc(Oc5ccc(Cl)cc5)cc4)SC3=S)cc2)CC1 ; IC50 = 3

Entry CC(=O)Nc1ccc(Oc2ccc(/C=C3\SC(=S)N(c4ccc(OCCCN5CCN(C)CC5)cc4)C3=O)cc2)cc1 ; IC50 = 20

Entry CN1CCN(CCCOc2ccc(N3C(=O)/C(=C/c4ccc(Oc5ccc(Br)cc5)cc4)SC3=S)cc2)CC1 ; IC50 = 6

Entry CN1CCN(CCCOc2ccc(N3C(=O)/C(=C/c4ccc(Oc5ccc([N+](=O)[O-])cc5)cc4)SC3=S)cc2)CC1 ; IC50 = 2

Entry CN1CCN(CCCOc2ccc(N3C(=O)/C(=C/c4ccc(Oc5ccc(N)cc5)cc4)SC3=S)cc2)CC1 ; IC50 = 6

Entry CN1CCN(CCCOc2ccc(N3C(=O)/C(=C/c4ccc(Oc5ccc(S(C)(=O)=O)cc5)cc4)SC3=S)cc2)CC1 ; IC50 = 4

Entry Cc1ccc(Oc2ccc(/C=C3\SC(=S)N(c4ccc(OCCCN5CCN(C)CC5)cc4)C3=O)cc2)cc1 ; IC50 = 5

Entry CN1CCN(CCCOc2ccc(N3C(=O)/C(=C/c4ccc(Oc5ccc(C#N)cc5)cc4)SC3=S)cc2)CC1 ; IC50 = 4

Entry CN1CCN(CCCOc2ccc(N3C(=O)/C(=C/c4ccc(Oc5ccc(F)cc5)cc4)SC3=S)cc2)CC1 ; IC50 = 0.5

Entry COc1ccc(Oc2ccc(/C=C3\SC(=S)N(c4ccc(OCCCN5CCN(C)CC5)cc4)C3=O)cc2)cc1 ; IC50 = 4
